Target: human TMEM106B (human, UniProt Q9NUM4 2-274); note: test concentration or dose not given here
Test: cell-based or functional assay
experimental-endpoint: % Protection from CPE (%)
State the answer as a number, implicitly in %.

# binder, % Protection from CPE / %
measured = [
    ("TM-68 (antibody, V domains shown) VH: EVQLQQSGAELVRPGASVKLSCTASGFNIKDDYMHWVRQRPEQGLEWIGWIDPENGDTEYASKFQGKATMTADTSSNTAYLHLSSLTSEDTAVYYCTKPQTATTCWGQGTLVTVSS VL: DIVMTQAAFSNPVTLGTSVSISCSSSKSLLHSSGITYLYWYLQRPGQSPQLLIYRMSNLASGVPDRFSGSGSGTDFTLRISRVEAEDVGVYYCAQMLERPWTFGGGTKLEIK", 3.5),
    ("TM-18 (antibody, V domains shown) VH: EVRLQQSGPELVKPGASVKISCKTSGYTFTDYYMNWVKQSHGKSLEWIVNINPNNGDAFYNQKFKGKATLTVDKSSNTAYLDLRSLTSEDSAVYYCAREGQLRLRRVYAMDYWGQGTSVTVSS VL: DIVLAQSPASLAVSLGQRATISCRASKSVSISVYTYVHWYQQKPGQPPKLLIYLASNLESGVPARFSGSGSGTDFTLNIHPVEEEDAATYYCQHSRELPYTFGGGTKLEIK", 100),
]

Now, please, on to the next binder.
Q. Form field: reported % Protection from CPE of TM-77 (antibody, V domains shown) VH: QIQLQQSGAELVRPGASVKLSCKASGYTFTDYEMHWVKQTPVHGLEWIGVIDPETGGTAYNQMFKGKATLTADKSSSTAYMDLRSLTSEDSAVYYCVKYGIEGYWGQGTTLTVSS VL: DVVMTQIPLTLSVTLGQPASISCKSSQSLFHSNGKTYLNWLLQRPGQSPKLLIYMVSKLESGVPDRFSGSGSGTDFTLKISRVEAEDLGVYYCLQVTHFPLTFGAGTKLELK
A. 4.7
